Exercise: for every item that follows, state its recorded pKi.
target: Human immunodeficiency virus type 1 protease (Human immunodeficiency virus 1, UniProt Q72874)
// pKi: -log10(molar conc.)

Sure, the documented pKi for O=C1N(Cc2ccc(O)cc2)[C@H](Cc2ccccc2)[C@H](O)[C@@H](O)[C@@H](Cc2ccccc2)N1Cc1ccc(O)cc1 is 9.92

Sure, the documented pKi for Cc1ccc(CN2C(=O)N(Cc3ccc(C)cc3)[C@H](Cc3ccccc3)[C@H](O)[C@@H](O)[C@H]2Cc2ccccc2)cc1 is 8.24

Sure, the documented pKi for O=C1N(Cc2ccc(CO)cc2)[C@H](Cc2ccccc2)[C@H](O)[C@@H](O)[C@@H](Cc2ccccc2)N1Cc1ccc2ccccc2c1 is 9.03

Sure, the documented pKi for C#CCN1C(=O)N(CC#C)[C@H](Cc2ccccc2)[C@H](O)[C@@H](O)[C@H]1Cc1ccccc1 is 7.66

Sure, the documented pKi for CC(C)CCCN1C(=O)N(CCCC(C)C)[C@H](Cc2ccccc2)[C@H](O)[C@@H](O)[C@H]1Cc1ccccc1 is 8.15

Sure, the documented pKi for CN1C(=O)N(C)[C@H](Cc2ccccc2)[C@H](O)[C@@H](O)[C@H]1Cc1ccccc1 is 5.24

Sure, the documented pKi for CC(C)CCCCCN1C(=O)N(CCCCCC(C)C)[C@H](Cc2ccccc2)[C@H](O)[C@@H](O)[C@H]1Cc1ccccc1 is 6.96

Sure, the documented pKi for O=C1N(Cc2cccnc2)[C@H](Cc2ccccc2)[C@H](O)[C@@H](O)[C@@H](Cc2ccccc2)N1Cc1ccc2ccccc2c1 is 8.28

Sure, the documented pKi for C=C(C)CN1C(=O)N(CC(=C)C)[C@H](Cc2ccccc2)[C@H](O)[C@@H](O)[C@H]1Cc1ccccc1 is 8.14

Sure, the documented pKi for CCCCCCN1C(=O)N(CCCCCC)[C@H](Cc2ccccc2)[C@H](O)[C@@H](O)[C@H]1Cc1ccccc1 is 8.34

Sure, the documented pKi for CCCCCN1C(=O)N(CCCCC)[C@H](Cc2ccccc2)[C@H](O)[C@@H](O)[C@H]1Cc1ccccc1 is 8.80

Sure, the documented pKi for O=C1N(Cc2cccc(Cl)c2)[C@H](Cc2ccccc2)[C@H](O)[C@@H](O)[C@@H](Cc2ccccc2)N1Cc1cccc(Cl)c1 is 9.05

Sure, the documented pKi for C=COCCN1C(=O)N(CCOC=C)[C@H](Cc2ccccc2)[C@H](O)[C@@H](O)[C@H]1Cc1ccccc1 is 7.22

Sure, the documented pKi for COCCOCCN1C(=O)N(CCOCCOC)[C@H](Cc2ccccc2)[C@H](O)[C@@H](O)[C@H]1Cc1ccccc1 is 5.11

Sure, the documented pKi for O=C1N(Cc2cccc(CO)c2)[C@H](Cc2ccccc2)[C@H](O)[C@@H](O)[C@@H](Cc2ccccc2)N1Cc1cccc(CO)c1 is 9.85

Sure, the documented pKi for CCCN1C(=O)N(CCC)[C@H](Cc2ccccc2)[C@H](O)[C@@H](O)[C@H]1Cc1ccccc1 is 8.10
